test system: K-562 leukemia; test: NCI tumour cell line growth inhibition, 48 h
readoutKind: TGI

Known TGI results, listed for orientation:
# molecule, readoutKind, result
rows = [
    ("Cc1ccc2c(Nc3cccc(Cl)c3F)ncc(NC(=O)c3csc4c(N)ncnc34)c2c1", "TGI", "> 100 µM"),
    ("CCN(CC)CCCOc1cc(O)c2c(=O)cc(-c3ccccc3)oc2c1", "TGI", "3.67 µM"),
    ("COc1c(Cl)cc(S(=O)O)cc1Cl", "TGI", "> 100 µM"),
    ("CO[C@@H]1C=C[C@@]23c4cc5c(cc4C(O)N(CC2O)C3C1)OCO5 (stereo not given in full)", "TGI", "> 100 µM"),
    ("O=Cc1ccc(Oc2c3ccccc3nc3occc23)cc1", "TGI", "> 100 µM"),
    ("COc1cc(C(=O)C/C(CCC(=O)Nc2ccc(Cl)cc2Cl)=N/NC(=O)C(N)=O)ccc1O", "TGI", "> 100 µM"),
]

Quick request: TGI for each listed item, please.
1. CCN1C(=O)c2ccccc2C1(O)c1ccc(Cl)cc1 (stereo not given)
2. CCCCCCCCCCCCCCCCOCC(COP(=O)([O-])OCC[n+]1ccc(N(C)C)cc1)OCC (stereo not given)
3. N#Cc1c(C#N)c(-c2ccco2)n(-c2ccccc2)c1N
4. COc1ccc2c(c1)CC[C@@H]1[C@@H]2CC[C@]2(C)C(=O)/C(=C/c3ccncc3)C[C@@H]12

1: > 100 µM; 2: 36.6 µM; 3: > 100 µM; 4: > 100 µM
